- System: SK-MEL-2 melanoma
- METHOD: NCI tumour cell line growth inhibition, 48 h
# TGI values compiled below
Field: numeric (µM). Do not append units.

Sample records with TGI:
MOLECULE: Cc1cc(C)c(O)c(CNCCCCCCNCc2cc(C)cc(C)c2O)c1
EXPERIMENTAL_TARGET: SK-MEL-2 melanoma
READOUT_UNIT: µM
ASSAY_VALUE: 3.67

MOLECULE: Cc1c(C#N)c2nnn(-c3ccc([N+](=O)[O-])cc3)c(=O)n2c1-c1ccccc1
EXPERIMENTAL_TARGET: SK-MEL-2 melanoma
READOUT_UNIT: µM
ASSAY_VALUE: 22

MOLECULE: COc1ccc(CNc2nc3cc(N)cc(N)c3nc2-c2ccccc2)cc1OC
EXPERIMENTAL_TARGET: SK-MEL-2 melanoma
READOUT_UNIT: µM
ASSAY_VALUE: 49.5

MOLECULE: O=C(Nc1ccc(-n2cc(-c3ccncc3)c(-c3ccc(O)c(Cl)c3)n2)cc1)c1cc(Cl)cc(Cl)c1
EXPERIMENTAL_TARGET: SK-MEL-2 melanoma
READOUT_UNIT: µM
ASSAY_VALUE: 2.94

MOLECULE: COc1ccc2c(c1)nc(N)c1c3cc(OC)c(OC)cc3cn21
EXPERIMENTAL_TARGET: SK-MEL-2 melanoma
READOUT_UNIT: µM
ASSAY_VALUE: 24.1

MOLECULE: CC([C@H]1CCC2C3CCC4C[C@@H](NC=O)CC[C@]4(C)C3CC[C@@]21C)N(C)C (stereo not given in full)
EXPERIMENTAL_TARGET: SK-MEL-2 melanoma
READOUT_UNIT: µM
ASSAY_VALUE: 13.8

MOLECULE: OC12C3C4CC5C(C4[C@@H]1Br)C2[C@@](O)(c1c(F)c(F)c(F)c(F)c1F)C53 (stereo not given in full)
EXPERIMENTAL_TARGET: SK-MEL-2 melanoma
READOUT_UNIT: µM
ASSAY_VALUE: 69.2

MOLECULE: O=c1c(/C=C/c2c(O)ccc3ccccc23)nnc2sc(-c3cccc([N+](=O)[O-])c3)nn12
EXPERIMENTAL_TARGET: SK-MEL-2 melanoma
READOUT_UNIT: µM
ASSAY_VALUE: 70.1

MOLECULE: CC(=O)OC(CC(C)C)P1(=O)N(CC(C)(C)C)[C@@H]2CCCC[C@H]2N1CC(C)(C)C (stereo not given in full)
EXPERIMENTAL_TARGET: SK-MEL-2 melanoma
READOUT_UNIT: µM
ASSAY_VALUE: 19.6

Here is another molecule to look at.
Fill in the blank: the reported TGI of COC1/C=C\C=C(/C)C(=O)Nc2cc3nc4ccc(Br)cc4oc-3c(c2=O)CC(C)CC(OC)C(O)C(C)/C=C(\C)C1OC(N)=O (stereo not given) is ____.
24.5
